test system: 1A9/ptx-10; assay: Effective dose required for inhibitory activity against PTX10 human tumor cell line; format: functional; details: read-out: ED50 (the source's name)
assay.readout: EC50 (µg/mL)
Numeric only. Scale: µg/mL

Here CCCCCCCCCCCC[C@@H](O)[C@H]1CC[C@H]([C@H](O)CCCCCC(O)CCCC[C@@H](O)CC2=C[C@H](C)OC2=O)O1 (stereo partly drawn) was tested on 1A9/ptx-10, and its EC50 came to 9.3

The reported EC50 value, 1A9/ptx-10, for CCCCCCCCCC[C@@H](O)[C@@H]1CC[C@@H]([C@@H]2CC[C@@H]([C@H](O)CCCCCCCCCC(O)CC3=CC(C)OC3=O)O2)O1 (stereo partly drawn) reads 8

Assay 1A9/ptx-10, sample CCCCCCCCCCCCCC[C@@H](O)[C@H]1CC[C@H]([C@H](O)CCCCC(O)CCCCCC(O)CC2=C[C@H](C)OC2=O)O1 (stereo partly drawn) , EC50 read: 7.2

* * *

system: 1A9/ptx-10; assay: Effective dose required for inhibitory activity against PTX10 human tumor cell line; assay type: functional; settings: read-out: ED50 (the source's name)
assay.readout: EC50 (µg/mL)
Form entry: value (µg/mL) — number only.

Entry CCCCCC[C@H](O)CCC[C@H](O)[C@H]1CC[C@H]([C@H]2CC[C@H]([C@H](O)CCCCCCCCCCCCC3=C[C@H](C)OC3=O)O2)O1 — recorded EC50 = 7

According to the records, this compound CCCCCCCCCCCC[C@H](O)[C@@H]1CC[C@@H]([C@@H](O)CCCCCCC(O)CCCCC[C@@H](O)CC2=C[C@H](C)OC2=O)O1 (stereo partly drawn) displays EC50 of 6.8

What the record says about CCCCCCCCCCCC[C@@H](O)[C@H]1CC[C@@H]([C@@H](O)CCCCCCC(O)CCCCC[C@@H](O)CC2=C[C@H](C)OC2=O)O1 (stereo partly drawn) : EC50 is 8.7

* * *

system: 1A9/ptx-10; experiment: Effective dose required for inhibitory activity against PTX10 human tumor cell line; type: functional; settings: read-out: ED50 (the source's name)
Record form. Attribute: log10 EC50. Fill in for each entry.
Units before log transform: µg/mL; reported quantity: EC50; transform: log10.

Response field log10 EC50 (1A9/ptx-10) for item CCCCCCCCCCCC[C@@H](O)[C@H]1CC[C@H]([C@H](O)CCCCC(O)CCCCCCCC2=C[C@H](C)OC2=O)O1 (stereo not given in full) : 0.70

Entry CCCCCCCCCC[C@H](O)[C@H]1CC[C@H]([C@H]2CC[C@H]([C@H](O)CCCCCCCC[C@@H](O)CC3=C[C@H](C)OC3=O)O2)O1 : log10 EC50 on 1A9/ptx-10 = 0.94

Observed log10 EC50 on 1A9/ptx-10, entry CC(=O)O[C@H]1C(=O)[C@@]2(C)[C@H]([C@H](OC(=O)c3ccccc3)[C@]3(O)C[C@H](OC(=O)[C@H](O)[C@@H](NC(=O)c4ccccc4)c4ccccc4)C(C)=C1C3(C)C)[C@]1(OC(C)=O)CO[C@@H]1C[C@@H]2O , equals -1.39

The value of log10 EC50 recorded for CCCCCC(O)C(O)CCCCCC[C@@H](O)[C@H]1CC[C@H](CCCCCCCCCC[C@@H](O)CC2=C[C@H](C)OC2=O)O1 (stereo not given in full) when tested on 1A9/ptx-10 reads 0.91

Reported 1A9/ptx-10 log10 EC50 for item CCCCCCCCCCCC[C@@H](O)[C@H]1CC[C@H]([C@H](O)CCCC[C@H](O)CCCCC[C@@H](O)CC2=CC(C)OC2=O)O1 (stereo not given in full) was 0.78
